- subject of test: UniProtKB Q92769
- Sequence (Q92769 whole entry): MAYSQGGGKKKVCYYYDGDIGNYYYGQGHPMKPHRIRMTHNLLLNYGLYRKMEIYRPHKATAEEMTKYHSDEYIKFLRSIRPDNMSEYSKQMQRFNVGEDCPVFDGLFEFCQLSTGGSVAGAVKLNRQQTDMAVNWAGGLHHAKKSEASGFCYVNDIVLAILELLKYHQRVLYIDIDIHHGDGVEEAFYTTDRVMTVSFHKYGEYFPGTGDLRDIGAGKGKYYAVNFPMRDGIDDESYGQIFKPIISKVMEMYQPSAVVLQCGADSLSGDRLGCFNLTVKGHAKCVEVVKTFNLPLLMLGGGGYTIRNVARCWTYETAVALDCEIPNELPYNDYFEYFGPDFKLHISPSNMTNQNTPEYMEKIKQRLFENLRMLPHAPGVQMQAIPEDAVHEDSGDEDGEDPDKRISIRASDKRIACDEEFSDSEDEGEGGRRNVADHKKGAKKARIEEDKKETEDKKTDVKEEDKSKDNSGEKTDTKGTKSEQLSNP
- protocol details: HDACs 1-11 enzymatic inhibition by BPS Bioscience
experimental readout: IC50 (nM)

> print(dat)
                                   molecule  experimental.readout  endpoint.result
1  Cc1ccc(/C=C/CC(=O)Nc2ccc(C(=O)Nc3ccc(F)cc3N)nc2)cn1 [GNTbm-02]                  IC50              910

----------
- subject of test: HDAC9 (Homo sapiens (Human))
- Sequence (Q9UKV0 whole entry): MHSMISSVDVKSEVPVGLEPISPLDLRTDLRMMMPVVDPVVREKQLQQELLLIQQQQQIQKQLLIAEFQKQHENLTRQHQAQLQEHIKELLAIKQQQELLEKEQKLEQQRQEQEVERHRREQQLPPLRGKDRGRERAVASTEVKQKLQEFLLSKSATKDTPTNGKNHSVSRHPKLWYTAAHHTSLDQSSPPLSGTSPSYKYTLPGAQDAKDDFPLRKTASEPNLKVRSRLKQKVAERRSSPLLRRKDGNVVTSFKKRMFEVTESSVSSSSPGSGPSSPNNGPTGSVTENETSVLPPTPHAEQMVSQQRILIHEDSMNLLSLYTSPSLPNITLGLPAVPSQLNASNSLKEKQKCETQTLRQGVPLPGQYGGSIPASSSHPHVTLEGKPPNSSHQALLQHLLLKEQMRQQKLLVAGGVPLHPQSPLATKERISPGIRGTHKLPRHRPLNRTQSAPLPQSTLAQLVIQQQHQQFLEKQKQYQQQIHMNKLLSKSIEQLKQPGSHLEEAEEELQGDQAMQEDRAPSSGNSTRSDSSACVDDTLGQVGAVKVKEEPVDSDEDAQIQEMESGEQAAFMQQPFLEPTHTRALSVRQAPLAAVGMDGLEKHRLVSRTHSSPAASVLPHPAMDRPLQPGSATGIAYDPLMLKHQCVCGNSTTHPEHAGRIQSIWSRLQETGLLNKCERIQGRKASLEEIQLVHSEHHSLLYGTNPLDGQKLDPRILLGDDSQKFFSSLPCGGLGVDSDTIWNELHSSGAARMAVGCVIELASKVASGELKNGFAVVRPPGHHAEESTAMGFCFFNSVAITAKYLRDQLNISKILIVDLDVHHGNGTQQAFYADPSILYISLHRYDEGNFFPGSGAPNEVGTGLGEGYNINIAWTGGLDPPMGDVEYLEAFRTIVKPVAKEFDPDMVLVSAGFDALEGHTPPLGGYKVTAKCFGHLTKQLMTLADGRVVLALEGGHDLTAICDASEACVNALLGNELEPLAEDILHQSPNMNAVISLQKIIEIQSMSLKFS
pIC50: −log10 of the molar value.
experimental readout: pIC50

> print(dat)
                        structure.as.smiles  endpoint.result
1  Cc1ccc(/C=C/CC(=O)Nc2ccc(C(=O)Nc3ccc(F)cc3N)nc2)cn1           < 5.00

----------
- subject of test: UniProt:Q9BY41
- Sequence (Q9BY41 whole entry): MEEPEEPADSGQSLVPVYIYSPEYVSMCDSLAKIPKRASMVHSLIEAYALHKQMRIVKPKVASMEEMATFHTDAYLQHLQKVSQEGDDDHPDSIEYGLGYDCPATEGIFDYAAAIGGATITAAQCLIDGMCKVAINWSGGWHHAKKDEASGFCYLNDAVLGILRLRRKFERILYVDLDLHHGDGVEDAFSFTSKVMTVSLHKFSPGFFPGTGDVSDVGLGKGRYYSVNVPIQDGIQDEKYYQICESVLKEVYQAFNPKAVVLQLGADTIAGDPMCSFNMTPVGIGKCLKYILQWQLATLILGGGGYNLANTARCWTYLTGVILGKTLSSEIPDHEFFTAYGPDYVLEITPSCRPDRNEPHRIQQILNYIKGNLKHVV
pIC50: −log10 of the molar value.
experimental readout: pIC50

> print(dat)
                        structure.as.smiles  endpoint.result
1  Cc1ccc(/C=C/CC(=O)Nc2ccc(C(=O)Nc3ccc(F)cc3N)nc2)cn1           < 5.00

----------
- subject of test: HDAC1 (Homo sapiens (Human))
- Sequence (Q13547 whole entry): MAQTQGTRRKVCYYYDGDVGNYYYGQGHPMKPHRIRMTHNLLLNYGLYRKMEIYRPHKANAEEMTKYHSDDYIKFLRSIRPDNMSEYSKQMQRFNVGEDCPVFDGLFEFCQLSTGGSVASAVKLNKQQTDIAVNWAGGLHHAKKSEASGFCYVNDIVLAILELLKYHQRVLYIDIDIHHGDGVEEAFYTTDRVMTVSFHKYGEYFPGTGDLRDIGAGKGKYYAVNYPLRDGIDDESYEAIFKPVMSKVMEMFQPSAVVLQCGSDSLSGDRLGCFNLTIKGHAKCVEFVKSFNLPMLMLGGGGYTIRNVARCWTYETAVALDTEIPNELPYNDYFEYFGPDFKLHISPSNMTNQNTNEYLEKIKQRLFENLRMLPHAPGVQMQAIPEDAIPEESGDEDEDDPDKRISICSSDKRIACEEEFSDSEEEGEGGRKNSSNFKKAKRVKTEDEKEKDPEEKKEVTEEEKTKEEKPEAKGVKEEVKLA
- protocol details: HDACs 1, 2, and 3 enzymatic inhibition (fluorogenic kit, 1 h)
- Assay type: biochemical
- assay conditions: 37° C.
experimental readout: IC50 (nM)

> print(dat)
                                    molecule  cmp  endpoint.result
 1  Nc1cc(C(F)(F)F)ccc1NC(=O)c1ccc(NC(=O)C/C=C/c2cccnc2)cn1 [GNTbm-11]    >            20000
 2  Nc1cc(C(F)(F)F)ccc1NC(=O)c1ccc(NC(=O)C/C=C/c2cccnc2)cc1 [GNTbm-33]    >            20000
 3  Cc1ccc(/C=C/CC(=O)Nc2ccc(C(=O)Nc3ccc(C(F)(F)F)cc3N)nc2)cn1 [GNTbm-12]    >            20000
 4  Cc1ccc(CCCC(=O)Nc2ccc(C(=O)Nc3ccc(F)cc3N)nc2)cn1 [GNTbm-08]    =              370
 5  Nc1cc(F)ccc1NC(=O)c1ccc(NC(=O)CCCc2cccnc2)cc1 [GNTbm-37]    =             9040
 6  Cc1ccc(CCCC(=O)Nc2ccc(C(=O)Nc3ccc(C(F)(F)F)cc3N)nc2)cn1 [GNTbm-25]    >            20000
 7  Cc1ccc(/C=C/CC(=O)Nc2ccc(C(=O)Nc3ccc(F)cc3N)cn2)cn1 [GNTbm-01]    =             6770
 8  Cc1ccc(/C=C/CC(=O)Nc2ccc(C(=O)Nc3ccc(F)cc3N)nc2)cn1 [GNTbm-02]    =              520
 9  Nc1ccccc1NC(=O)c1ccc(NC(=O)C/C=C/c2cccnc2)cn1 [GNTbm-05]    =              140
10  Cc1ccc(/C=C/CC(=O)Nc2ccc(C(=O)Nc3ccccc3N)nc2)cn1 [GNTbm-06]    =              100
11  Nc1cc(F)ccc1NC(=O)c1ccc(NC(=O)C/C=C/c2cccnc2)cn1 [GNTbm-04]    =              380
12  Cc1ccc(CCCC(=O)Nc2ccc(C(=O)Nc3ccccc3N)nc2)cn1 [GNTbm-19]    =              480
13  Nc1ccccc1NC(=O)c1ccc(NC(=O)C/C=C/c2cccnc2)cc1 [GNTbm-38]    =              690
14  Nc1cc(F)ccc1NC(=O)c1ccc(NC(=O)C/C=C/c2cccnc2)cc1 [GNTbm-39]    =             3700
15  Cc1ccc(/C=C/CC(=O)Nc2ccc(C(=O)Nc3ccc(F)cc3N)cc2)cn1 [GNTbm-03]    =              560

----------
- System: MDA-MB-231
- protocol details: In vitro cytotoxicity MTT assay
- Type: cell-based, human
- assay conditions: Homo sapiens, MDA-MB-231, 72 h, IC50 ± SD
pIC50: −log10 of the molar value.
experimental readout: pIC50

> print(dat)
                                   compound  cmp  endpoint.result
1  Cc1ccc(CCCC(=O)Nc2ccc(C(=O)Nc3ccc(F)cc3N)nc2)cn1    <             4.30
2  Nc1ccccc1NC(=O)c1ccc(NC(=O)C/C=C/c2cccnc2)cc1    =             5.45
3  Cc1ccc(/C=C/CC(=O)Nc2ccc(C(=O)Nc3ccc(F)cc3N)cc2)cn1    =             4.57
4  Nc1ccccc1NC(=O)c1ccc(NC(=O)C/C=C/c2cccnc2)cn1    =             5.78
5  Nc1cc(F)ccc1NC(=O)c1ccc(CNC(=O)/C=C/c2cccnc2)cc1 [Chidamide, reference compound]    =             4.59
6  Cc1ccc(/C=C/CC(=O)Nc2ccc(C(=O)Nc3ccc(C(F)(F)F)cc3N)nc2)cn1    <             4.30
7  Cc1ccc(/C=C/CC(=O)Nc2ccc(C(=O)Nc3ccc(F)cc3N)nc2)cn1    =             4.87
8  Cc1ccc(/C=C/CC(=O)Nc2ccc(C(=O)Nc3ccccc3N)nc2)cn1    =             5.41

----------
- subject of test: HDAC4 (Homo sapiens (Human))
- Sequence (P56524 whole entry): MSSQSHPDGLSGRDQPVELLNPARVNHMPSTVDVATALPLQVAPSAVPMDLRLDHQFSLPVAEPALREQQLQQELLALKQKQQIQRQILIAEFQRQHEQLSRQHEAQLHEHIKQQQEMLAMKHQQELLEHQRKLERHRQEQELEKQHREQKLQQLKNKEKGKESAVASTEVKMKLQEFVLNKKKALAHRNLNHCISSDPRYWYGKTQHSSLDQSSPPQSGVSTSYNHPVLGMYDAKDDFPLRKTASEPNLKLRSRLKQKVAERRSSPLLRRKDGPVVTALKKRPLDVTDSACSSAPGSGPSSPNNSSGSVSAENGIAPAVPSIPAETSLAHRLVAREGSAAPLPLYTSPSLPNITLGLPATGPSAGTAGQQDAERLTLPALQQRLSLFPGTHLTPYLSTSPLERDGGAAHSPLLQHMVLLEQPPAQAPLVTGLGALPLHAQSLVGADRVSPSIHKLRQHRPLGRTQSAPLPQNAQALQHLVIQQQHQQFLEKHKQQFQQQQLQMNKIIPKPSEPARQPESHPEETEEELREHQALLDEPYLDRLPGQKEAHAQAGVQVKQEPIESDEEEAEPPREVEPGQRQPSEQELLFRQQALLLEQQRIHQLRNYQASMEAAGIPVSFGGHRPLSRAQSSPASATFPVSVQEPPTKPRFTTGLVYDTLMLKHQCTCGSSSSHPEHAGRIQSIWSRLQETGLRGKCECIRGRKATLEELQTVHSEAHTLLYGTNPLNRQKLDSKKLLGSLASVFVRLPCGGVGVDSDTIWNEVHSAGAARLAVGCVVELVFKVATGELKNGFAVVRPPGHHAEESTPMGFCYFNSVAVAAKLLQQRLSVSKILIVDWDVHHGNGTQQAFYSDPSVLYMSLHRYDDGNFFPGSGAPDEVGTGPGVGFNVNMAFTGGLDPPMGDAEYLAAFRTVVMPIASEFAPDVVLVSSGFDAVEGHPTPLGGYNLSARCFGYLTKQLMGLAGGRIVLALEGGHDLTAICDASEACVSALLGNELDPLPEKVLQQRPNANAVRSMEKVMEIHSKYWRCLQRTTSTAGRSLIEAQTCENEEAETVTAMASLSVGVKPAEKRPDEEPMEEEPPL
pIC50: −log10 of the molar value.
experimental readout: pIC50

> print(dat)
                        structure.as.smiles  endpoint.result
1  Cc1ccc(/C=C/CC(=O)Nc2ccc(C(=O)Nc3ccc(F)cc3N)nc2)cn1           < 5.00

----------
Below, each of the molecules is paired with its reported Percentage of Cell Cycle Distribution S value.
- Tested on: SW48 cells
- protocol details: Cell cycle arrest by PI flow cytometry
- Type: cell-based, human
- assay conditions: SW48, 2 μM, 72 h
experimental readout: Percentage of Cell Cycle Distribution S (%)

> print(dat)
                        structure.as.smiles  endpoint.result
1  Nc1ccccc1NC(=O)c1ccc(NC(=O)C/C=C/c2cccnc2)cn1             11.8
2  Nc1cc(F)ccc1NC(=O)c1ccc(NC(=O)C/C=C/c2cccnc2)cc1             18.8
3  Nc1ccccc1NC(=O)c1ccc(NC(=O)C/C=C/c2cccnc2)cc1             13.6
4  Nc1cc(F)ccc1NC(=O)c1ccc(NC(=O)C/C=C/c2cccnc2)cn1             10.8

----------
- Tested on: MDA-MB-453
- protocol details: In vitro cytotoxicity MTT assay
- Format: cell-based, human
- assay conditions: Homo sapiens, MDA-MB-453, 72 h, IC50 ± SD
- Description: Six different cell lines were used, including human breast cancer cell line MDA-MB-231 (6×10^3), MDA-MB-453 (2.4×10^4), SK-BR-3 (6×10^3), human breast epithelial cell line M10 (6×10^3), human gastric carcinoma NCI-N87 (2.4×10^4), and human colorectal adenocarcinoma SW48 (2.4×10^4), and seeded in a 96 well plate. Cell lines were obtained from Bioresource Collection and Research Center, BCRC, Taiwan. […] After 72 h, MTT assay (Cayman™) was used to determine the cellular viability.
pIC50: −log10 of the molar value.
experimental readout: pIC50

> print(dat)
                                   molecule  endpoint.result
1  Cc1ccc(/C=C/CC(=O)Nc2ccc(C(=O)Nc3ccc(F)cc3N)cc2)cn1 [GNTbm-03]             5.74
2  Cc1ccc(/C=C/CC(=O)Nc2ccc(C(=O)Nc3ccc(F)cc3N)cn2)cn1 [GNTbm-01]             4.68
3  Nc1ccccc1NC(=O)c1ccc(NC(=O)C/C=C/c2cccnc2)cc1 [GNTbm-38]             5.78
4  Nc1ccccc1NC(=O)c1ccc(CNC(=O)OCc2cccnc2)cc1 [Entinostat, reference compound]             5.74
5  Nc1cc(F)ccc1NC(=O)c1ccc(NC(=O)C/C=C/c2cccnc2)cc1 [GNTbm-39]             5.74
6  Nc1cc(F)ccc1NC(=O)c1ccc(NC(=O)C/C=C/c2cccnc2)cn1 [GNTbm-04]             5.80
7  Nc1ccccc1NC(=O)c1ccc(NC(=O)C/C=C/c2cccnc2)cn1 [GNTbm-05]             5.80
8  Cc1ccc(/C=C/CC(=O)Nc2ccc(C(=O)Nc3ccc(F)cc3N)nc2)cn1 [GNTbm-02]             5.77
9  Nc1cc(F)ccc1NC(=O)c1ccc(NC(=O)CCCc2cccnc2)cc1 [GNTbm-37]             5.31
